Attribution: patent US8642788B2

# Target Under Test: procaspase-7 (Homo sapiens)
# Construct: His6 (C)
# Sequence (P55210 whole entry): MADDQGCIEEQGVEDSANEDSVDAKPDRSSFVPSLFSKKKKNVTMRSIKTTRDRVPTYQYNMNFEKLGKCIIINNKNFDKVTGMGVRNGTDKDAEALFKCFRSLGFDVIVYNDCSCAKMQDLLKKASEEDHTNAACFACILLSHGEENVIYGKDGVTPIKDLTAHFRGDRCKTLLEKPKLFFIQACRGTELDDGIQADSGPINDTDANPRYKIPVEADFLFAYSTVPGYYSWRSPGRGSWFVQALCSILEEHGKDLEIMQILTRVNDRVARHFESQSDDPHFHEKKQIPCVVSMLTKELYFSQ
# Test Details: Executioner procaspase-7 activation assay (Ac-DEVD-AFC fluorogenic substrate)
# Reported Conditions: incubation with compound for 5 h at 37° C.; 100 nM procaspase
# EC50 values compiled below

Below, 3 compounds whose answers are already recorded.
| Mol Smiles | Target Under Test | EC50 |
| --- | --- | --- |
| O=C(Nc1cccc(-c2cnn(Cc3ccccc3)c2)c1)c1cc2cccc(O)c2oc1=O | procaspase-7 (Homo sapiens) | > 100 µM |
| COc1ncccc1-c1cccc(NC(=O)c2cc3cccc(OC)c3oc2=O)c1 | procaspase-7 (Homo sapiens) | > 100 µM |
| N#Cc1cccc(-c2cccc(NC(=O)c3cc4cccc(O)c4oc3=O)c2)c1 | procaspase-7 (Homo sapiens) | > 100 µM |

Notebook: `CC(=O)Nc1ccccc1-c1cccc(NC(=O)c2cc3cccc(O)c3oc2=O)c1` , EC50 read as > 100 µM

Notebook: `COc1ncc(-c2cccc(NC(=O)c3cc4cccc(O)c4oc3=O)c2)cn1` , EC50 read as > 100 µM

Notebook: `N#Cc1ccccc1-c1cccc(NC(=O)c2cc3cccc(OC(F)(F)F)c3oc2=O)c1` , EC50 read as > 100 µM

Notebook: `O=C(Nc1cccc(-c2ccc3c(c2)OCCO3)c1)c1cc2cccc(O)c2oc1=O` , EC50 read as > 100 µM

Notebook: `COc1cccc2cc(C(=O)Nc3cccc(-c4cccc(C#N)c4)c3)c(=O)oc12` , EC50 read as > 100 µM
